assay_system: COX 2 (Homo sapiens, UniProt P35354)
Construct: purchased IBL Products Company, Hamburg, Germany
Sequence (P35354 18-604): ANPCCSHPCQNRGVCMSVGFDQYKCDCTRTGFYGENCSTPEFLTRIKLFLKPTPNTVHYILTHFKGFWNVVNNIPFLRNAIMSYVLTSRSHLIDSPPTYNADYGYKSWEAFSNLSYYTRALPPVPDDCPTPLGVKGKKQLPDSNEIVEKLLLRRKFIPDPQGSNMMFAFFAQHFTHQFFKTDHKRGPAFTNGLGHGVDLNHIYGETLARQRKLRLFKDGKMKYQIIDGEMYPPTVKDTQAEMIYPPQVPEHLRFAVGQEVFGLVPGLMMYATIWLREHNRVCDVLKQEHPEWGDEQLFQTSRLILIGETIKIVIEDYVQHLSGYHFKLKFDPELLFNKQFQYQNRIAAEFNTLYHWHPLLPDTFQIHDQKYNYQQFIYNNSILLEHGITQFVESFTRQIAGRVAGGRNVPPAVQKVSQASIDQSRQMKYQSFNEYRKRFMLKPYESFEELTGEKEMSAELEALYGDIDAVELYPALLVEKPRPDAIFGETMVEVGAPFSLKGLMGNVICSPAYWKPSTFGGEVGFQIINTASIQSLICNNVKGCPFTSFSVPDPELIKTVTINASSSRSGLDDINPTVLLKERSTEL
protocol_summary: COX (human) inhibitor screening assay, COX 2
Type: biochemical
experimental_setup: ratio of COX 2 IC50 to COX 1 IC50
quantity_kind: COX2/COX1 Ratio

Field: example entries. Status: answers known.
molecule	COX2/COX1 Ratio
Oc1ccc(C=Cc2cc(O)c(O)c(O)c2)cc1 [M9, 3,4,4′,5-Tetrahydroxystilbene]	0.002
COc1cc(C=Cc2cc(OC)c(OC)c(OC)c2)cc(OC)c1OC	0.05

(a) COc1cc(C=Cc2cc(OC)c(OC)c(OC)c2)cc(OC)c1
(b) Oc1cc(O)cc(C=Cc2cc(O)c(O)c(O)c2)c1 [M7, 3,3′,4,5,5′-Pentahydroxystilbene]
**Q:** Identify the entry with the larger COX2/COX1 Ratio. Options: a and b Kindly give the label for the entry you pick.
**A:** b
(b: 0.5, a: 0.06)
